The values you see were collected from patent US20220144922A1.

- test system: RSV F protein of subtype B strain 18537, on virus (respiratory syncytial virus subtype B …, UniProt P13843 26-574)
- Sequence (P13843 26-574): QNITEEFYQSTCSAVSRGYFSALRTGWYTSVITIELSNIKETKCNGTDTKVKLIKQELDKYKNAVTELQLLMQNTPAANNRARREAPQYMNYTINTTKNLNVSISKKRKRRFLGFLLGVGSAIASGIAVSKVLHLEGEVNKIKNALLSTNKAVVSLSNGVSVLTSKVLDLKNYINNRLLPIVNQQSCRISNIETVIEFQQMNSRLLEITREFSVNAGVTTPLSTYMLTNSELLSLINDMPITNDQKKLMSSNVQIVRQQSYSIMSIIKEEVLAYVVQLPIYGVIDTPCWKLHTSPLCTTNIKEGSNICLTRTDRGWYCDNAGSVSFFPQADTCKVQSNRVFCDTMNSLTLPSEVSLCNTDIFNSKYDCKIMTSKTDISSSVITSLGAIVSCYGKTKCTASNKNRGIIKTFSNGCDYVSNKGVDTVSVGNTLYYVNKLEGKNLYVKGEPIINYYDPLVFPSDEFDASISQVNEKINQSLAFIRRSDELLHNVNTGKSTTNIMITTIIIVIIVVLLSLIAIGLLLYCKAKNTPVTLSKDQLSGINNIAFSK
- measurement notes: cell-based or functional assay

{"columns": ["binder", "Neut IC50 (ug/ml) subtype B / µg/mL"],
 "data": [
  ["ADI-15665 (antibody, V domains shown) VH: QVQLVQSGPEVKRPGSSVKVSCKASGDTFNNYAISWVRQAPGQGLEWMGGIHPTTATPNYAQKFQGRVVISADKSTSTAYLDLSRLRSEDTAMYYCARVGVGRTWVYDIMGYLDYWGQGTLVTVSS VL: EIVLTQSPATLSLSPGERATLSCRASQSVSDYLAWYQQRPGQAPRLLIYDASTRATGIPDRFSGGGSGTDFTLTISSLEPEDFAVYYCQHRNNWPSLTFGGGTKVEIK", 6.25],
  ["ADI-15621 (antibody, V domains shown, IgG; also called Antibody Number 186) VH: QVQLVQSGPEMKKPGSSVKVSCKPSGGTFSSYSVSWVRQAPGQGLEWMGGIIPIFGSSDYAQKFQGRLTITEDESTKTSYMQLNNLTSDDTAIYFCARDNYYVWTGHYPEFDFWGQGTLVTVSS VL: ETTLTQSPGTLSLSLGETATLSCRASQSVRSDYLAWYQQKPGQAPRLLISGASNRATAIPERFTGSGSGTDFTLTISSLEPADFAVYYCQQYGSTPITFGQGTRLEIK", 0.021],
  ["ADI-15594 (antibody, V domains shown, IgG) VH: EVQLVESGGHLVQPGGSLRLSCAASGFTFSSYSMNWVRQAPGKGLEWISYISSSSSTMYYADSVKGRFTMSRDNAKNSLYLQMNSLRDEDTALYYCARDFPPINLAATTRNYYYYVMDVWGQGTTVTVSS VL: DIQLTQSPSSLSASVGDRVTITCRASQSISSYLNWYQQKPGKAPNLLIYATSNLKSGVPSRFSGSGSGTDFTLTISSLQPEDFATYYCQQSYSTSYTFGQGTKVDIK", 3.28],
  ["ADI-15581 (antibody, V domains shown) VH: QVQLVQSGAEVKKPGSSMKVSCQASGGPFSTYTISWVRQAPGQGLEWMGGIIPVFGTPNYAQKFHGRVTITADQSTSTAYMELSSLRSEDTAVYYCAGAPYPMDVWGQGTTVTVSS VL: EIVLTQSPATLSLSPGERATLSCRASQSVASSLAWYQQKPGQAPRLLIYDASNRATGIPARFSGSGSGTDFTLTISSLEPEDFAVYYCQQRTNWQGLSFGGGTKVDIK", 6.12],
  ["ADI-15627 (antibody, V domains shown, IgG; also called Antibody Number 192) VH: EVQLVESGGGVVQPGRSLRLSCAASGFTFSDYAMHWVRQAPGKGLEWVAVIWYDGGNKYYADSAKGRFTISRDNSKNTLYLQMNSLRAEDTAVYYCAKDRGSIWNVGDGMDVWGQGTTVTVSS VL: QPVLTQPPSVSVAPGQTARVTCGGNNIGAKSVHWYQQKPGQAPVLVVDDDTDRPSGIPERFSGSNSGNTATLTISRVEAGDEADYYCQVWDASIGPLYVFGTGTKLTVL", 2.42],
  ["ADI-15566 (antibody, V domains shown, IgG) VH: QVQLVQSGAEVKKPGASVKVSCKASGFTFTNYGISWVRQAPGRGLEWMGWISAYNGNTEYAQKLQDRLTMTTDTSTNTAYMELRSLRSDDTALYYCARESGVAAAATLLYWGQGTLVTVSS VL: ETTLTQSPLSLPVTLGQPASISCRSSQSLVYSDGNTYLSWFQQRPGQSPRRLIYKVSNRDSGVPDRFSGSGSGADFTLKISRVEAEDVGVYYCMQGIYWPRTFGQGTKVDIK", 0.043],
  ["ADI-15571 (antibody, V domains shown, IgG) VH: QVQLVQSGAEVKKPGASVKVSCKASGYSFTDYYIHWVRQAPGQGLEWIGWINPNSGGTTFAQNFQGRVTMTRDTSISTAFLELSRLKSDDTAVYYCARDVLWLNGFWGLGTLVTVSS VL: QSVVTQPPSVSAAPGQKVTISCSGSSSNIGNNYVSWYQQFRGTAPKVLIYENNKRTSGIPDRFSGSKSGTSATLGITGLQTGDEADYYCGTWDSSLSTGPYVVFGGGTKLTVL", 0.43],
  ["ADI-15635 (antibody, V domains shown, IgG; also called Antibody Number 200) VH: EVQLLESGGGLVKPGGSLRLSCAASGFTISGYNMFWVRQPPGKGLEWVSSITAGSSYLNYADSVKGRFIVSRDNAKNSLYLQMNSLRAEDTAVYFCARAPLLPAMMDLWGQGTTVTVSS VL: QSVLTQPPSVSGAPGQRVTISCTGSSSNIGAGYDVHWYQQLPGTAPKLLIYTNNNRPSGVPDRFSGSKSGTSASLAITGLQAEDEADYYCQSYDRSLNGYVFGTGTKVTVL", 0.226],
  ["ADI-15615 (antibody, V domains shown, IgG; also called Antibody Number 180) VH: EVQLVETGGGLVKPGGSLRLSCAGSGFTFSSYTLNWVRQAPGKGLEWVSSISSSSTYIYYADSVKGRFTISRDNAKNSLHLQMNSLRAEDTAVYYCARADYDRSVYHLNWLDPWGQGTLVTVSS VL: QPVLTQPPSVSGAPGQRVTISCTGSSSNIGAGYDVHWYQQLPGAAPKLLIYGNTNRPSGVPDRFSGSKSGTSASLAITGLQADDEADYYCQSYDSSLSGTWVFGGGTKLTVL", 1.68],
  ["ADI-15652 (antibody, V domains shown, IgG) VH: EVQLLESGGGVVQPGRSLRLSCAASGFTFSDFSMHWVRQAPGKGLEWVALISNDGSNKYYSDSLKGSFIISRDNSKNTLYLQLNSLGAEDTALYYCARDAVPHYDYVWGNFDYWGQGTLVTVSS VL: QSVLTQPASVSASPGQSITISCTGTSSDVGGYNYVSWYQQHPGKAPKLIIYEVSNRPSGVSNRFSGSKSGNTASLTISGLQADDEADYYCSSYTSFTPVVFGGGTKLTVL", 0.036]
]}
